- testTarget: UniProt:O96028
- Sequence (O96028 whole entry): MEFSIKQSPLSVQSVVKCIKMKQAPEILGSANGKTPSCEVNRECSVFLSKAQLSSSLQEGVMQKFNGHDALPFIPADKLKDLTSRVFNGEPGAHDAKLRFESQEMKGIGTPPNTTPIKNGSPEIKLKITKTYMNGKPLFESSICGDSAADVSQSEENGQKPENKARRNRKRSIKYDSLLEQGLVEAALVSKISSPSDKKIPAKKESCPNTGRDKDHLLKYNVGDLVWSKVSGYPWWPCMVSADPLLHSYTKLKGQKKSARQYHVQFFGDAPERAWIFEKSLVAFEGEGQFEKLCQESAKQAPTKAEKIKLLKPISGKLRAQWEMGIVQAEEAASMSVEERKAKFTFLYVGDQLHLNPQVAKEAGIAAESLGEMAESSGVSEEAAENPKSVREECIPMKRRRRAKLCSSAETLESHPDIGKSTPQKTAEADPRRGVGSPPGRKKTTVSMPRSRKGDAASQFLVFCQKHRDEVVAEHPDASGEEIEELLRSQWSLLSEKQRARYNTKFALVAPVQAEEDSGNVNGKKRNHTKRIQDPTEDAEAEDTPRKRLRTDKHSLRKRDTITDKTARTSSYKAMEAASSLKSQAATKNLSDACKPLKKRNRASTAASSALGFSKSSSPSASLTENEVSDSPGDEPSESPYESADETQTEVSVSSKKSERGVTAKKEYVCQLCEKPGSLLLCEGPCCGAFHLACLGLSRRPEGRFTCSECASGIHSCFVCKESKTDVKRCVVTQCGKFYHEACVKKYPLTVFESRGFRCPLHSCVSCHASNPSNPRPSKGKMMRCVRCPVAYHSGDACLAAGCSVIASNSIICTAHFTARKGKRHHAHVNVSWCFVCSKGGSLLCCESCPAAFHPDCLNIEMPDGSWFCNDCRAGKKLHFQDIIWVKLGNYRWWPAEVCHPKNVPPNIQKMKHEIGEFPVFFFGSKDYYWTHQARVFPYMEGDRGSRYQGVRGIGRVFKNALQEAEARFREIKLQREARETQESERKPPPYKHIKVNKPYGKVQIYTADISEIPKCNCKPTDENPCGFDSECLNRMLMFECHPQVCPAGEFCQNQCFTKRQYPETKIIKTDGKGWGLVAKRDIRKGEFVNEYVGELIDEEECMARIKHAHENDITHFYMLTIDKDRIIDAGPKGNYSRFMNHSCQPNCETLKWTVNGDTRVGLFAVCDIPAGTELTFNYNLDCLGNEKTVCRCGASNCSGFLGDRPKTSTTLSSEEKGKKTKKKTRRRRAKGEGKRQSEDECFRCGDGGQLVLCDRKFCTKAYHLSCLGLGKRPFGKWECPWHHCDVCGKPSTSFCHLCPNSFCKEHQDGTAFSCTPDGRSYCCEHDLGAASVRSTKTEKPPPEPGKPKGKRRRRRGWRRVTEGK
- Assay type: biochemical
The source made the active and inactive calls.
quantity: AC50

CC1=C(C#N)c2nc(N)c(C#N)c(C)c2/C1=C\c1ccc(-c2ccccc2C(=O)O)o1 ... > 20 µM (inactive)

Exercise: Item CC(C)NC1CCC(Nc2ccnc3cc(Cl)ccc23)CC1 (centres undefined) has what recorded AC50?
Solution: > 20 µM (inactive)

Exercise: Item: Cc1ccc(C)c(-n2c3nc(=O)[nH]c(=O)c-3cc3cc([N+](=O)[O-])ccc32)c1
Solution: > 20 µM (inactive)

Exercise: Follow-up item: CC1CC(C)CN(C(=O)c2ccc3c(c2NCCO)C(=O)c2ccccc2C3=O)C1 (centres undefined)
Solution: 19.3 µM (active)

---

- testTarget: Estrogen receptor beta (Homo sapiens)
- Sequence (Q92731 whole entry): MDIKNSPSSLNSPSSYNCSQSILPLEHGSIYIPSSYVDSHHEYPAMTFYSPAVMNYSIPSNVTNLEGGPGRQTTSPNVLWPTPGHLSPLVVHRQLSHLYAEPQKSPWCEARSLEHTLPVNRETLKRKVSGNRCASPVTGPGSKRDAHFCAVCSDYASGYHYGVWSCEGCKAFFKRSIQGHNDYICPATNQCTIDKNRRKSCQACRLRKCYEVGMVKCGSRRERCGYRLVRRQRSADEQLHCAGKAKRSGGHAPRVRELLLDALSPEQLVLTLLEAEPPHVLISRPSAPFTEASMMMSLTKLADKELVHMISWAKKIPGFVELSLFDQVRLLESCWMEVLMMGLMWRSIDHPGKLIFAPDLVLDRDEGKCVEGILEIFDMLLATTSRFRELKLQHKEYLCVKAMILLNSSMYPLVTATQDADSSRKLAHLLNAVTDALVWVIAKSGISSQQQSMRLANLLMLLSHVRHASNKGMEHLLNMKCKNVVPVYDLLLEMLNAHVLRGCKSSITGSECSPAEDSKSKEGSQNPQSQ
- experimentNotes: blockers of SRC-3 recruitment to ERβ – biochemical, ELISA, streptavidin-HRP readout, orthogonal assay, confirmation (AID 1060)
quantity: IC50

CSc1nc(N(CCO)CCO)c2sc3nc(-c4ccco4)c4c(c3c2n1)CCC4 ... > 50 µM (not active)

Moving on to the next compound.
Exercise: Requested field: IC50. Item: O=C(Cn1c(=O)n(Cc2ccco2)c(=O)c2c3c(sc21)CCCCC3)Nc1ccccc1
Solution: 24.9 µM (not active)

---

- testTarget: Corticotropin-releasing factor receptor 2/Corticotropin-releasing factor-binding protein (Homo sapiens, UniProt P24387+Q13324)
- Sequence (Q13324 whole entry): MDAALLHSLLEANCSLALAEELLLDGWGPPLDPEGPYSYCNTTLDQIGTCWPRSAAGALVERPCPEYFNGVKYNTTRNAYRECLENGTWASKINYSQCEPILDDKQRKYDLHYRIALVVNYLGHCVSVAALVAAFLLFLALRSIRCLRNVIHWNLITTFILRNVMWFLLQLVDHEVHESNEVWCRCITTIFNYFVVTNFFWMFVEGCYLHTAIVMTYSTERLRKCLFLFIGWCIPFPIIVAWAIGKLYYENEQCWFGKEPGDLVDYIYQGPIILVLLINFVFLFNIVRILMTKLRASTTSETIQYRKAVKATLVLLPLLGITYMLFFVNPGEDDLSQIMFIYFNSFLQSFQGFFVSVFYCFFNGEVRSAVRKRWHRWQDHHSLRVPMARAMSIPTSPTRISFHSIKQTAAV
- Sequence (P24387 whole entry): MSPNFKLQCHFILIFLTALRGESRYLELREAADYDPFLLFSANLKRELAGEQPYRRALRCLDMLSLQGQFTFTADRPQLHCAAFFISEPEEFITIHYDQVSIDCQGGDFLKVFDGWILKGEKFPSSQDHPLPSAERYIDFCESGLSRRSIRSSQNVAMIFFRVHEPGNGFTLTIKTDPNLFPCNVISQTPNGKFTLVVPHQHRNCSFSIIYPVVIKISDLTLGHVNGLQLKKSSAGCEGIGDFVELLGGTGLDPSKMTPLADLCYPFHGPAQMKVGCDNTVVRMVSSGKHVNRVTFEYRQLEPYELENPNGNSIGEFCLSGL
- experimentNotes: Dose Response confirmation of uHTS hits for small molecule antagonists of the CRF-binding protein and CRF-R2 receptor complex.
- Format: functional
- assayContext: read-out: IC50_Mean
Calls of active or inactive are those of the source.
Pick one and only one: label 1 (active), label 0 (inactive)

CCCCCCn1c(=O)c(F)cn(Cc2ccc(OC)c([N+](=O)[O-])c2)c1=O ... label 0
COCC(C)n1c(SCc2ccc(C(=O)OC)o2)nc2ccccc2c1=O (centres undefined) ... label 1
O=C(O)c1ccc(-n2ncc3c2/C(=C/c2cccc([N+](=O)[O-])c2)CC3)cc1 ... label 1
CC1CCN(C(=O)C2CCN(S(=O)(=O)c3cccnc3)CC2)CC1 ... label 0
COCCn1c(-c2ccccc2)cs/c1=N\c1cccnc1 ... label 1

Exercise: Tell me the assay call for O=C1/C(=C\c2ccc(Br)cc2)SC(=S)N1NS(=O)(=O)c1ccccc1 please.
Solution: label 1

Exercise: And for COc1ccc(C(C(=O)NC2CCCCC2)N(Cc2cccs2)C(=O)Cc2c[nH]c3ccccc23)cc1OC (centres undefined) ?
Solution: label 0

Exercise: How about CCn1c(SCC(=O)N2CCCCC2)nc2c(c1=O)SCC2 ?
Solution: label 0

Exercise: Also, CC(C)c1ccc(/C=N/NC(=O)c2cc(-c3cccc([N+](=O)[O-])c3)[nH]n2)cc1 please.
Solution: label 0

---

Overview of reported IC50 across a group of molecules:
- testTarget: Large T antigen (Simian virus 40);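 further: Confirmatory-stage PubChem screen for compounds that inhibit SV40 T antigen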
- Sequence (P03070 whole entry): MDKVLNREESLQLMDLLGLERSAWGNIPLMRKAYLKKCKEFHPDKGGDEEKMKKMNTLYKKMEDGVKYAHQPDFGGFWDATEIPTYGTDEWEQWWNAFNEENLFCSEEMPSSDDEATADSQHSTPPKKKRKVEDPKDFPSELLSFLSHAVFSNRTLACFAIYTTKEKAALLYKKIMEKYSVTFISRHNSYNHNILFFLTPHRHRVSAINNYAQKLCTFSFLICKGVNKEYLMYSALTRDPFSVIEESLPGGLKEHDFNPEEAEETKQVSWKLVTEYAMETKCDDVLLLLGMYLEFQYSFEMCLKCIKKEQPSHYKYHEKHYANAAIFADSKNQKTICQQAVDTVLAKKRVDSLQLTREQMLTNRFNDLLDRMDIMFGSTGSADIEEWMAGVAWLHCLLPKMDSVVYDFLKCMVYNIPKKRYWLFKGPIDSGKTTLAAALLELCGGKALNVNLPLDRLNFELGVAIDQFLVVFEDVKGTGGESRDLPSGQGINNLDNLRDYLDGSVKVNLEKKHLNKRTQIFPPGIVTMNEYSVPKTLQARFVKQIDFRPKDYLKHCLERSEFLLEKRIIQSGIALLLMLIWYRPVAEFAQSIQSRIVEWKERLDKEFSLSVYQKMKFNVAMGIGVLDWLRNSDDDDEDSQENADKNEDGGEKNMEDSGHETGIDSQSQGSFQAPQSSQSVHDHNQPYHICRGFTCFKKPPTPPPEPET
- Type: functional, Betapolyomavirus macacae
Calls of active or inactive are those of the source.

Consider the following illustrative entries.
Cc1ccc(C2=NOC(=O)/C2=C\c2ccc(C)o2)cc1 ... 78.1 µM (active)
CNc1nc(-c2ccccc2)[n+](-c2ccc(C)cc2)s1 ... 39 µM (active)
O=c1c2c3c(sc2n2c(S)nnc2n1-c1ccccc1)CCC3 ... 30.4 µM (active)
CCOc1cc(NS(=O)(=O)c2ccc(NC(C)=O)cc2)c(OCC)cc1NC(=O)c1cccs1 ... 24 µM (active)
O=c1cc(CN2CCN(c3ccc(O)cc3)CC2)nc2scc(-c3ccccc3)n12 ... 10.5 µM (active)

Exercise: Entry O=C(N/N=C/c1ccc(O)cc1)c1csc2ccccc12 : reported IC50 = ?
Solution: 13.3 µM (active)

Exercise: Okay, and CC1=C(C#N)c2nc(N)c(C#N)c(C)c2/C1=C\c1ccc(-c2ccccc2C(=O)O)o1 ?
Solution: 86.6 µM (active)
